# Experiment Description: UV-vis spectrophotometric titrations: proton dissociation constants of the ligands and overall stability constants of their In(III) complexes
# Assay type: physicochemical
# Condition Description: In(III) complex of the ligand L, T = 25.0 °C, I = 0.20 M (KCl)
Measured Attribute: logβ [InL]

O=S(=O)(O)c1ccc(O)c2ncccc12 [HQS, 8-Hydroyquinoline-5-sulfonate] = 12.29
Cc1occc(=O)c1O [Maltol, 3-Hydroxy-2-methyl-4H-pyran-4-one] = 10.77
Oc1cccc2cccnc12 [HQ, 8-Hydroxyquinoline] = 13.43
Cc1c(O)c(=O)ccn1C [Deferiprone, 3-Hydroxy-1,2-dimethylpyridin-4(1H)-one] = 13.72

* * *

The following compounds are shown together with reported pIn (pM = –log[M(III)]) values.
# Experiment Description: pM* / pM values computed at pH 7.4 from stability constants
# Type: physicochemical
# Condition Description: Table S1; does not account for hydrolysis of the metal ion
Measured Attribute: pIn (pM = –log[M(III)])

Cc1occc(=O)c1O [Maltol, 3-Hydroxy-2-methyl-4H-pyran-4-one] = 14.31
Oc1cccc2cccnc12 [HQ, 8-Hydroxyquinoline] = 16.48
O=S(=O)(O)c1ccc(O)c2ncccc12 [HQS, 8-Hydroyquinoline-5-sulfonate] = 16.23
Cc1c(O)c(=O)ccn1C [Deferiprone, 3-Hydroxy-1,2-dimethylpyridin-4(1H)-one] = 16.25

* * *

We begin with a simple list: items and their reported pKa.
# Experiment Description: pH-potentiometric titrations: proton dissociation constants of the ligands and overall stability constants of their In(III) complexes
# Assay type: physicochemical
# Condition Description: water, pH-pot; T = 25.0 °C, I = 0.20 M (KCl); read-out: pKa (H2L)
Measured Attribute: pKa

Cc1c(O)c(=O)ccn1C [Deferiprone, 3-Hydroxy-1,2-dimethylpyridin-4(1H)-one] = 3.66
O=S(=O)(O)c1ccc(O)c2ncccc12 [HQS, 8-Hydroyquinoline-5-sulfonate] = 3.89

* * *

# Experiment Description: pM* / pM values computed at pH 7.4 from stability constants
# Format: physicochemical
# Condition Description: pH 7.4, 1 μM Ga(III), 10 μM ligand; computed from stability constants of Ref. 27 (deferiprone) or Ref. 29 (maltol, HQS, HQ)
Marks after values point to notes of the source that are not given here.
Measured Attribute: pGa* (−log([M] + [M(OH)(1–4)]))

O=S(=O)(O)c1ccc(O)c2ncccc12 [HQS, 8-Hydroyquinoline-5-sulfonate] = 7.92^j
Cc1occc(=O)c1O [Maltol, 3-Hydroxy-2-methyl-4H-pyran-4-one] = 6.00^j
Cc1c(O)c(=O)ccn1C [Deferiprone, 3-Hydroxy-1,2-dimethylpyridin-4(1H)-one] = 8.83^i
Oc1cccc2cccnc12 [HQ, 8-Hydroxyquinoline] = 7.86^j

* * *

Below, each entry is listed alongside its reported pKa.
# Experiment Description: UV-vis spectrophotometric titrations: proton dissociation constants of the ligands and overall stability constants of their In(III) complexes
# Assay type: physicochemical
# Condition Description: water, T = 25.0 °C, I = 0.20 M (KCl), read-out: pKa (H2L)
Measured Attribute: pKa

O=S(=O)(O)c1ccc(O)c2ncccc12 [HQS, 8-Hydroyquinoline-5-sulfonate] = 3.7
Oc1cccc2cccnc12 [HQ, 8-Hydroxyquinoline] = 4.9
Cc1c(O)c(=O)ccn1C [Deferiprone, 3-Hydroxy-1,2-dimethylpyridin-4(1H)-one] = 3.57

* * *

# Experiment Description: pH-potentiometric titrations: proton dissociation constants of the ligands and overall stability constants of their In(III) complexes
# Type: physicochemical
# Condition Description: water, pH-pot; T = 25.0 °C, I = 0.20 M (KCl); read-out: pKa (HL)
Measured Attribute: pKa

O=S(=O)(O)c1ccc(O)c2ncccc12 [HQS, 8-Hydroyquinoline-5-sulfonate] = 8.46
Cc1c(O)c(=O)ccn1C [Deferiprone, 3-Hydroxy-1,2-dimethylpyridin-4(1H)-one] = 9.72
Cc1occc(=O)c1O [Maltol, 3-Hydroxy-2-methyl-4H-pyran-4-one] = 8.47
